- TARGET: Peroxisome proliferator-activated receptor gamma coactivator 1-alpha (Homo sapiens)
- Sequence (Q9UBK2 whole entry): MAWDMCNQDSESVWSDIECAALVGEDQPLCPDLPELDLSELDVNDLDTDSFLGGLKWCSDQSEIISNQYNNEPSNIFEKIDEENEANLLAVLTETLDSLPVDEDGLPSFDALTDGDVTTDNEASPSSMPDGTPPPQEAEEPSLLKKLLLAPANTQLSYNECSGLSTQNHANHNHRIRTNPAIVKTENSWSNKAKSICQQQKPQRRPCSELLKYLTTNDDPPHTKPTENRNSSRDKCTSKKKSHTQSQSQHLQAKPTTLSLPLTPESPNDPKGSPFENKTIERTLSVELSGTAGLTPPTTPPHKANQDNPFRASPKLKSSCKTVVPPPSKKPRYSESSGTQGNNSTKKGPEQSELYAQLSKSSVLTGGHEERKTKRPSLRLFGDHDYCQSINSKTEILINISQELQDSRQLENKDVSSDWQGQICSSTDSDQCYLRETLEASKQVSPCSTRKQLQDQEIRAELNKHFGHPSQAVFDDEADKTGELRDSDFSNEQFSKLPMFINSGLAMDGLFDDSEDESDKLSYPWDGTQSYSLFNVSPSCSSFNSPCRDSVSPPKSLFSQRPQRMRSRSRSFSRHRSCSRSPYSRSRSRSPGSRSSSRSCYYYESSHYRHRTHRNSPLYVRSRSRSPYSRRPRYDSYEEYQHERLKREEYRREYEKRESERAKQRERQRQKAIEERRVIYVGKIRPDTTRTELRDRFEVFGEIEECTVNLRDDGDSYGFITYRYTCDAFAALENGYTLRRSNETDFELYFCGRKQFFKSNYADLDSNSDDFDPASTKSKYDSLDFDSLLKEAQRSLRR
- TEST_METHOD_NOTES: Binding affinity to PGC1alpha (unknown origin) by surface plasmon resonance assay
QUANTITY: pKd
Numbers only, as −log10 of the molar value.

Request: Identify measured pKd corresponding to "CC(C)(C)c1ccc(C(=O)c2ccc(O)c(O)c2)cc1"
Response: 3.76
